# Tested on: Staphylococcus aureus
# assay_info: Antibacterial activity against trimethoprim sensitive Staphylococcus aureus assessed as inhibition of bacterial growth
# Assay type: functional
Please respond with reported MIC for every item in the list.
Record the value in µM, omitting the unit from your answer.

Give the measured MIC of "COc1cc(Cc2cnc(N)nc2N)cc(OC)c1OC(=O)C12CC(C(=O)Oc3c(OC)cc(Cc4cnc(N)nc4N)cc3OC)(C1)C2" .
25

Give the measured MIC of COc1cc(Cc2cnc(N)nc2N)cc(OC)c1O [4-HYDROXYTRIMETHOPRIM] .
12.5

Give the measured MIC of "COc1cc(Cc2cnc(N)nc2N)cc(OC)c1OC" .
6.25

Give the measured MIC of "COc1cc(Cc2cnc(N)nc2N)cc(OC)c1OC(=O)C12CC3CC(C1)CC(C(=O)Oc1c(OC)cc(Cc4cnc(N)nc4N)cc1OC)(C3)C2" .
12.5

* * *

Please respond with reported MIC for every item in the list.
# System: Enterococcus faecium
# assay_info: Antibacterial activity against trimethoprim sensitive Enterococcus faecium assessed as inhibition of bacterial growth
# Format: functional
Record the value in µM, omitting the unit from your answer.

Give the measured MIC of "COc1cc(Cc2cnc(N)nc2N)cc(OC)c1OC(=O)C12CC(C(=O)Oc3c(OC)cc(Cc4cnc(N)nc4N)cc3OC)(C1)C2" .
1.56

Give the measured MIC of "COc1cc(Cc2cnc(N)nc2N)cc(OC)c1OC(=O)C12CC3CC(C1)CC(C(=O)Oc1c(OC)cc(Cc4cnc(N)nc4N)cc1OC)(C3)C2" .
6.25

Give the measured MIC of "COc1cc(Cc2cnc(N)nc2N)cc(OC)c1OC(=O)C12CCC(C(=O)Oc3c(OC)cc(Cc4cnc(N)nc4N)cc3OC)(CC1)CC2" .
3.12

Give the measured MIC of "COc1cc(Cc2cnc(N)nc2N)cc(OC)c1OC" .
0.78

Give the measured MIC of COc1cc(Cc2cnc(N)nc2N)cc(OC)c1O [4-HYDROXYTRIMETHOPRIM] .
3.12

* * *

# System: Staphylococcus aureus
# assay_info: Antibacterial activity against trimethoprim resistant Staphylococcus aureus assessed as inhibition of bacterial growth
# Assay type: functional
readout_name: MIC

Give the measured MIC of "COc1cc(Cc2cnc(N)nc2N)cc(OC)c1OC(=O)C12CC(C(=O)Oc3c(OC)cc(Cc4cnc(N)nc4N)cc3OC)(C1)C2" .
> 100 µM

Give the measured MIC of "COc1cc(Cc2cnc(N)nc2N)cc(OC)c1OC" .
12.5 µM

Give the measured MIC of COc1cc(Cc2cnc(N)nc2N)cc(OC)c1O [4-HYDROXYTRIMETHOPRIM] .
> 25 µM

Give the measured MIC of "COc1cc(Cc2cnc(N)nc2N)cc(OC)c1OC(=O)C12CC3CC(C1)CC(C(=O)Oc1c(OC)cc(Cc4cnc(N)nc4N)cc1OC)(C3)C2" .
> 25 µM
